Where these numbers come from: patent US20240336624A1

# testedOn: PARP-1 enzyme (Homo sapiens, UniProt P09874)
# Sequence (P09874 whole entry): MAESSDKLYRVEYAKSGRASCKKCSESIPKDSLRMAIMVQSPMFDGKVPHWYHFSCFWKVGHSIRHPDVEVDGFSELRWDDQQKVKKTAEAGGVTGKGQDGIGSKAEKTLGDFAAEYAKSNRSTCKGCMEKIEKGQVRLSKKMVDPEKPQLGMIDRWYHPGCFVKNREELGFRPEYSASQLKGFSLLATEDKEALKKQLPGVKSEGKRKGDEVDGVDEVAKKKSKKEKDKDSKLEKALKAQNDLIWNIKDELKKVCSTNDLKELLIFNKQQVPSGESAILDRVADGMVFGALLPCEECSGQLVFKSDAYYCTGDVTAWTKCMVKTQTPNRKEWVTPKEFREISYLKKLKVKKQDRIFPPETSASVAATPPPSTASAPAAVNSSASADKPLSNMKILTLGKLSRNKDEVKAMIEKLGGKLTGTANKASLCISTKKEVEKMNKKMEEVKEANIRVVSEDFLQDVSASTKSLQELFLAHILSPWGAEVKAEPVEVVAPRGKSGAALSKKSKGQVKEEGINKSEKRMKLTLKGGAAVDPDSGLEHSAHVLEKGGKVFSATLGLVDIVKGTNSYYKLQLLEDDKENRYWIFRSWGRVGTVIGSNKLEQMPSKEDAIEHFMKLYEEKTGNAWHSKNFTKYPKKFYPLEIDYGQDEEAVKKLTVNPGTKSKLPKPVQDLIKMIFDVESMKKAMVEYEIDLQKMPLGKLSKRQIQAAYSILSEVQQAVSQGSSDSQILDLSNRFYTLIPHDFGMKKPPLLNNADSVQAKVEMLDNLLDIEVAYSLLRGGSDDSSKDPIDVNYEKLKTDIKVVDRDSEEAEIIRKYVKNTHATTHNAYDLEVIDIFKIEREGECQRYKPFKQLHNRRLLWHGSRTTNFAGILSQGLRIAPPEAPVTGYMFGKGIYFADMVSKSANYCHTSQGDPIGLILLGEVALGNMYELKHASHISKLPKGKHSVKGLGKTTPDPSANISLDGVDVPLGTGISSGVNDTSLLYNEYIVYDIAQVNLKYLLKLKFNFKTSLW
# procedureText: In vitro inhibition of activity of poly (ADP-ribose) polymerase [PARP-1 enzyme], histone-coated plate chemiluminescence
# Type: biochemical
# reportedConditions: class symbols; read-out: Inhibitory activity against PARP-1 (IC50)
Measured IC50 of individual entries

compound: CCc1cc2ccc(CN3CCN(c4ccc(C(=O)NC)nc4C(F)F)CC3)nc2[nH]c1=O [Compound 53]
IC50: 10 to 50 nM
--
compound: CCc1cc2ncc(C(C)N3CCN(c4ccc(C(=O)NC)nc4)CC3)cc2[nH]c1=O (centres unmarked) [Compound 3]
IC50: ≤ 10 nM

Specify reported IC50 for the compound shown: CCC1C(=O)Nc2cc(CN3CCN(c4ccc(C(=O)NC)nc4)CC3)cnc2N1C (centres unmarked) [Compound 58]
≤ 10 nM

Specify reported IC50 for the compound shown: CCc1cc2ncc(C(C)N3CCN(c4ccc(C(=O)NC5CC5)nc4)CC3)cc2[nH]c1=O (centres unmarked) [Compound 42]
10 to 50 nM

Specify reported IC50 for the compound shown: CCc1cc2ncc(CN3CCN(c4ccc(C(=O)NC)nc4F)CC3)nc2[nH]c1=O [Compound 51]
10 to 50 nM

Specify reported IC50 for the compound shown: CCc1nc2ccc(CN3CCN(c4ccc(C(=O)NC5CC5)nc4F)CC3)cc2[nH]c1=O [Compound 18]
≤ 10 nM

Specify reported IC50 for the compound shown: CNC(=O)c1ccc(N2CCN(Cc3cnc4cc(C5CC5)c(=O)[nH]c4c3)CC2)nn1 [Compound 67]
≤ 10 nM

Specify reported IC50 for the compound shown: CCc1nc2ncc(CN3CCN(c4ccc(C(=O)NC5CC5)nc4)CC3)cc2[nH]c1=O [Compound 26]
≤ 10 nM

* * *

Measured IC50 of individual entries
# testedOn: PARP-1 enzyme (Homo sapiens, UniProt P09874)
# procedureText: In vitro inhibition of activity of poly (ADP-ribose) polymerase [PARP-1 enzyme], histone-coated plate chemiluminescence
# Type: biochemical
# reportedConditions: class symbols; read-out: Inhibitory activity against PARP-1 (IC50)

See these solved cases before continuing.
compound: CCc1cc2ncc(C(C)N3CCN(c4ccc(C(=O)NC)nc4F)CC3)cc2[nH]c1=O (centres unmarked)
measuredResult: 10 to 50 nM
--
compound: CCc1cc2ncc(CN3CCN(c4cnc(C(=O)NC5CC5)nc4C(F)F)CC3)cc2[nH]c1=O
measuredResult: ≤ 10 nM
--
compound: CNC(=O)c1ncc(N2CCN(Cc3cnc4cc(C5CC5)c(=O)[nH]c4c3)CC2)cn1
measuredResult: 10 to 50 nM
--
compound: CCc1nc2ccc(C(C)N3CCN(c4ccc(C(=O)NC5CC5)nc4)CC3)cc2[nH]c1=O (centres unmarked)
measuredResult: ≤ 10 nM
--
compound: CNC(=O)c1ccc(N2CCN(C(C)c3cnc4cc(C5CC5)c(=O)[nH]c4c3)CC2)cn1 (centres unmarked)
measuredResult: ≤ 10 nM

Param request: IC50 | system PARP-1 enzyme (Homo sapiens, UniProt P09874) | item CCC1C(=O)Nc2cc(CN3CCN(c4ccc(C(=O)NC)nc4F)CC3)cnc2C1(C)C (centres unmarked)
≤ 10 nM

Param request: IC50 | system PARP-1 enzyme (Homo sapiens, UniProt P09874) | item O=C(NC1CC1)c1ccc(N2CCN(Cc3cnc4nc(C5CC5)c(=O)[nH]c4c3)CC2)cn1
≤ 10 nM

Param request: IC50 | system PARP-1 enzyme (Homo sapiens, UniProt P09874) | item CCc1cc2ncc(CN3CCN(c4cnc(C(=O)NC5CC(F)(F)C5)nc4)CC3)cc2[nH]c1=O
10 to 50 nM

* * *

# testedOn: PARP-1 enzyme (Homo sapiens, UniProt P09874)
# procedureText: In vitro inhibition of activity of poly (ADP-ribose) polymerase [PARP-1 enzyme], histone-coated plate chemiluminescence
# Assay type: biochemical
# reportedConditions: class symbols; read-out: Inhibitory activity against PARP-1 (IC50)
# Experimental: Example 69. Experiment on In Vitro Inhibition of Activity of Poly (ADP-Ribose) Polymerase [PARP-1 Enzyme] with Compounds of the Present Invention The histones were coated onto 384-well plates at 4° C. overnight, rinsed three times with a PBST buffer, and blocked at room temperature for 1 h. […] After incubation at room temperature for 1 h, HRP substrates ECL A and B were added, and Envision quantified chemiluminescence. […]
pIC50: −log10 of the molar value.
Measured pIC50 of individual entries

Specify reported pIC50 for the compound shown: CCc1nc2ncc(CN3CCN(c4ccc(C(=O)NC5CC5)nc4F)CC3)cc2[nH]c1=O
7.30 to 8.00

Specify reported pIC50 for the compound shown: O=C(NC1CC1)c1ccc(N2CCN(Cc3ccc4nc(C5CC5)c(=O)[nH]c4c3)CC2)cn1
≥ 8.00

Specify reported pIC50 for the compound shown: CCc1cc2ncc(CN3CCN(c4ccc(C(=O)NC5CC5)nc4C(F)F)CC3)cc2[nH]c1=O
7.30 to 8.00

Specify reported pIC50 for the compound shown: CCc1cc2ncc(CN3CCN(c4ccc(C(=O)NC)nc4C(F)F)CC3)nc2[nH]c1=O
≥ 8.00

Specify reported pIC50 for the compound shown: CCc1cc2ncc(CN3CCN(c4cnc(C(=O)NC5CC5)nc4F)CC3)cc2[nH]c1=O
≥ 8.00

Specify reported pIC50 for the compound shown: CCc1cc2ncc(CN3CCN(c4ccc(C(=O)NC)nc4)CC3)nc2[nH]c1=O
≥ 8.00

Specify reported pIC50 for the compound shown: CCC1Oc2ncc(CN3CCN(c4ccc(C(=O)NC5CC5)nc4)CC3)cc2NC1=O (centres unmarked)
7.30 to 8.00

Specify reported pIC50 for the compound shown: CCc1cc2ccc(CN3CCN(c4ccc(C(=O)NC)nc4F)CC3)nc2[nH]c1=O
≥ 8.00

Specify reported pIC50 for the compound shown: CCc1nc(C(=O)NC2CC2)ccc1N1CCN(Cc2ccc3nc(CC)c(=O)[nH]c3c2)CC1
≥ 8.00

Specify reported pIC50 for the compound shown: CCc1nc(C(=O)NC)ccc1N1CCN(C(C)c2cnc3cc(CC)c(=O)[nH]c3c2)CC1 (centres unmarked)
7.30 to 8.00

Specify reported pIC50 for the compound shown: CCc1cc2ncc(CN3CCN(c4cnc(C(=O)NC5CC5)nc4)CC3)cc2[nH]c1=O
7.30 to 8.00

Specify reported pIC50 for the compound shown: CCc1nc2ccc(CN3CCN(c4ccc(C(=O)NC5CCC5)nc4)CC3)cc2[nH]c1=O
≥ 8.00

Specify reported pIC50 for the compound shown: CCc1cc2ncc(CN3CCN(c4ccc(C(=O)NC5CC(F)C5)nc4)CC3)cc2[nH]c1=O (centres unmarked)
≥ 8.00

Specify reported pIC50 for the compound shown: CCc1nc2ccc(CN3CCN(c4ccc(C(=O)NC5CC5)nc4)CC3)cc2[nH]c1=O
≥ 8.00

Specify reported pIC50 for the compound shown: CCC1Oc2ncc(CN3CCN(c4ccc(C(=O)NC)nc4F)CC3)cc2NC1=O (centres unmarked)
≥ 8.00

* * *

# testedOn: PARP-1 enzyme (Homo sapiens)
# procedureText: In vitro inhibition of activity of poly (ADP-ribose) polymerase [PARP-1 enzyme], histone-coated plate chemiluminescence
# Format: biochemical
# reportedConditions: class symbols; read-out: Inhibitory activity against PARP-1 (IC50)
Measured IC50 of individual entries

molecule: CCc1cc2ncc(CN3CCN(c4cnc(C(=O)NC5CC(F)C5)cn4)CC3)cc2[nH]c1=O (centres unmarked) [Compound 38]
IC50: 0.01 to 0.05 µM
--
molecule: CCc1nc2ccc(CN3CCN(c4ccc(C(=O)NC5CC5)nc4)CC3)nc2[nH]c1=O [Compound 46]
IC50: ≤ 0.01 µM
--
molecule: CCc1cc2ncc(CN3CCN(c4ccc(C(=O)NC5CC5F)nn4)CC3)cc2[nH]c1=O (centres unmarked) [Compound 37]
IC50: 0.01 to 0.05 µM
--
molecule: CCc1nc2ccc(CN3CCN(c4ccc(C(=O)NC)nc4)CC3)nc2[nH]c1=O [Compound 4]
IC50: ≤ 0.01 µM
--
molecule: CCc1nc2ccc(CN3CCN(c4ccc(C(=O)NC5CC5)nc4C)CC3)cc2[nH]c1=O [Compound 25]
IC50: ≤ 0.01 µM

Specify reported IC50 for the molecule shown: CCc1cc2ncc(C(C)N3CCN(c4ccc(C(=O)NC5CC5)nc4)CC3)cc2[nH]c1=O (centres unmarked) [Compound 10]
0.01 to 0.05 µM

Specify reported IC50 for the molecule shown: CCc1cc2ccc(CN3CCN(c4ccc(C(=O)NC5CC5)nc4)CC3)nc2[nH]c1=O [Compound 52]
0.01 to 0.05 µM

Specify reported IC50 for the molecule shown: CCc1cc2ncc(CN3CCN(c4cnc(C(=O)NC)nc4)CC3)cc2[nH]c1=O [Compound 2]
≤ 0.01 µM

* * *

# testedOn: PARP-1 enzyme (Homo sapiens, UniProt P09874)
# procedureText: In vitro inhibition of activity of poly (ADP-ribose) polymerase [PARP-1 enzyme], histone-coated plate chemiluminescence
# Type: biochemical
# reportedConditions: class symbols; read-out: Inhibitory activity against PARP-1 (IC50)
measuredEndpoint: IC50

See these solved cases before continuing.
compound: CCc1cc2ncc(CN3CCN(c4cnc(C(=O)NC)cn4)CC3)cc2[nH]c1=O
IC50: 10 to 50 nM
--
compound: CCc1cc2ncc(CN3CCN(c4ccc(C(=O)NC)nn4)CC3)cc2[nH]c1=O
IC50: 10 to 50 nM
--
compound: O=C(NC1CC1)c1ccc(N2CCN(Cc3ccc4nc(CCF)c(=O)[nH]c4c3)CC2)cn1
IC50: ≤ 10 nM
--
compound: CCc1cc2ncc(CN3CCN(c4ccc(C(=O)NC5CC(F)(F)C5)nc4)CC3)cc2[nH]c1=O
IC50: ≤ 10 nM
--
compound: CNC(=O)c1cnc(N2CCN(Cc3cnc4cc(C5CC5)c(=O)[nH]c4c3)CC2)cn1
IC50: 10 to 50 nM
--
compound: CCc1cc2ncc(CN3CCN(c4ccc(C(=O)NC5CCC5)nc4)CC3)cc2[nH]c1=O
IC50: > 50 nM
--
compound: CCc1cc2ncc(CN3CCN(c4ccc(C(=O)NC5CC5F)nc4)CC3)cc2[nH]c1=O (centres unmarked)
IC50: ≤ 10 nM
--
compound: CCc1nc2ncc(CN3CCN(c4ccc(C(=O)NC5CC5)nc4C(F)F)CC3)cc2[nH]c1=O
IC50: 10 to 50 nM
--
compound: CCc1cc2ncc(CN3CCN(c4cnc(C(=O)NC5CC5)cn4)CC3)cc2[nH]c1=O
IC50: 10 to 50 nM
--
compound: CCc1cc2ncc(C(C)N3CCN(c4ccc(C(=O)NC)nc4C(F)F)CC3)cc2[nH]c1=O (centres unmarked)
IC50: ≤ 10 nM

Specify reported IC50 for the compound shown: CCc1cc2ncc(CN3CCN(c4ccc(C(=O)NC5CC5)nn4)CC3)cc2[nH]c1=O
≤ 10 nM

Specify reported IC50 for the compound shown: CCC1Cc2ncc(CN3CCN(c4ccc(C(=O)NC5CC5)nc4)CC3)cc2NC1=O (centres unmarked)
10 to 50 nM

Specify reported IC50 for the compound shown: CCc1nc2ccc(CN3CCN(c4ccc(C(=O)NC5CC(F)(F)C5)nc4)CC3)cc2[nH]c1=O
≤ 10 nM
